Biological target: human AMPK (full-length γ1, β1 and α1 subunits) (Homo sapiens (Human), UniProt Q13131+Q9Y478)
Sequence (Q13131 whole entry): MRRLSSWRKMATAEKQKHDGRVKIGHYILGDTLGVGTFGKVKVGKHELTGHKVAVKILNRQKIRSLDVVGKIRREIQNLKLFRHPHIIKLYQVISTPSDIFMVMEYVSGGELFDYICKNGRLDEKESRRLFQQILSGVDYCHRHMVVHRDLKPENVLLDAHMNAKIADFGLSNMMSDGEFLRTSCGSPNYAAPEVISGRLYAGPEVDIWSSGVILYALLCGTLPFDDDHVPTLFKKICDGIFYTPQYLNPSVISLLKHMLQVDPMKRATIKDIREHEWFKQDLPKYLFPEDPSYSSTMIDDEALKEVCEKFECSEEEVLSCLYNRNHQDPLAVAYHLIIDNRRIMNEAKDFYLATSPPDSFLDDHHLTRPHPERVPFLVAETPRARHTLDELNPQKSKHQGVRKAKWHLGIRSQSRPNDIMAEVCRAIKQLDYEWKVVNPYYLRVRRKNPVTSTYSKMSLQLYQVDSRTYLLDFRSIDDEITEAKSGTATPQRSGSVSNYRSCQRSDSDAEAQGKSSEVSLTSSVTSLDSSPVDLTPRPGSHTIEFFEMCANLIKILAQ
Sequence (Q9Y478 whole entry): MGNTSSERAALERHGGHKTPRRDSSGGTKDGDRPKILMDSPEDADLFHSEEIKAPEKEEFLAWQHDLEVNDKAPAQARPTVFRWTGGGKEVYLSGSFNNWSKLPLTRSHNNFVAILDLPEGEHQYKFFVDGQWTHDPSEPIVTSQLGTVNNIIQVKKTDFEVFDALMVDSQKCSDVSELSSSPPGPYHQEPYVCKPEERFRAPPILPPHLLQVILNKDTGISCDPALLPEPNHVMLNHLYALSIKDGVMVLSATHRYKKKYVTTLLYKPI
Sequence (P54619 whole entry partner): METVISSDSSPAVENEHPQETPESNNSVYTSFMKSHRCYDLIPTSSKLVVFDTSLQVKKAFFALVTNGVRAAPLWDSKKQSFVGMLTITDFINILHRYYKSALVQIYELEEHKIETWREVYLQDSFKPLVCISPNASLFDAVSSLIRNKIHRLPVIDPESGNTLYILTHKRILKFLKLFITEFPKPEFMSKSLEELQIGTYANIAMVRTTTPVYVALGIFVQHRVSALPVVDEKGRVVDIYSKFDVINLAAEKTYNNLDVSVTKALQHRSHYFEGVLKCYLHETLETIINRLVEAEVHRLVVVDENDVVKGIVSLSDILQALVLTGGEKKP
Experiment: AMPK in vitro biochemical assay (33P-based, SAMS peptide, PP2A dephosphorylation)
Conditions: counts as % of positive control wells (enzyme, allosteric activator or AMP, PP2A and substrate)
Listed next: entries and their corresponding Maximum.
State just the number; it will be interpreted in %.

Request: Requested field: Maximum. Item: O=C(O)c1c[nH]c2cc(F)c(-c3ccc(C4CCCCO4)cc3)cc12 (single isomer, unassigned) [Example 171]
Result: 69.2

Request: Moving on to COC(=O)N1CCC(c2ccc(-c3cc4c(C(=O)O)c[nH]c4cc3Cl)cc2)C1 (single isomer, unassigned) [Example 14B]
Result: 91

Request: O=C(O)c1c[nH]c2cc(F)c(-c3ccc(C4CCCCO4)cc3)cc12 (single isomer, unassigned) [Example 172] ?
Result: 101.1

Request: Next compound: O=C(O)c1c[nH]c2cc(F)c(-c3ccc(C4CCCO4)cc3)c(F)c12 (stereo not shown)
Result: 112.3

Request: Moving on to the next compound: O=C(O)c1c[nH]c2cc(Cl)c(-c3ccc(C4CCCO4)cc3)cc12 (single isomer, unassigned) [Example 154]
Result: 104.8

Request: Now give it for O=C(O)c1c[nH]c2cc(F)c(-c3ccc(C4CCCO4)cc3)cc12 (single isomer, unassigned) too.
Result: 103.8

Request: How about O=C(O)c1n[nH]c2cc(Cl)c(-c3ccc(C4CC(O)C4)cc3)cc12 (stereo not shown) [Example 126] ?
Result: 110
